Assay: physchem
Settings: 25 °C, aqueous buffer
Structures can show the parent of a compound that is named as a salt.
value_type: solubility

Prompt: Which value of solubility has been reported for CN[C@H](CC(C)C)C(=O)N[C@H]1C(=O)N[C@@H](CC(N)=O)C(=O)N[C@H]2C(=O)N[C@H]3C(=O)N[C@H](C(=O)N[C@H](C(=O)O)c4cc(O)cc(O)c4-c4cc3ccc4O)[C@H](O)c3ccc(c(Cl)c3)Oc3cc2cc(c3O[C@@H]2O[C@H](CO)[C@@H](O)[C@H](O)[C@H]2O[C@H]2C[C@](C)(N)[C@H](O)[C@H](C)O2)Oc2ccc(cc2Cl)[C@H]1O [Vancomycin Hydrochloride] in the records?
Completion: > 89 µg/mL
